- Target Entity: T1, SH2 domain of Grb10 (recombinant, on protein microarray) (human, UniProt Q13322 493-574)
- T1 chain: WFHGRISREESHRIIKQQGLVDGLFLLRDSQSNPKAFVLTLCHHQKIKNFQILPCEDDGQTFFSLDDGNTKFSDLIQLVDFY
Where no end group is shown, it is not given here. [ ]: non-standard residue; d: D form. pY = N[C@@H](Cc1ccc(OP(=O)(O)O)cc1)C(=O)O
Measurement Name: Kd (nM)
Response body: numeric value in nM, unit text excluded.

What does the record list as Kd for KYVDSEGHL[pY]TVPIREQG (peptide, UniProt Q03135 5-22, looked up, also: fluorescent label (position not given here), caveolin-1 (Cav1), human, residues 5-22; also called Tyr14-Cav1 phosphopeptide (18 amino acids); source: synthetic peptide, purified to >95% by preparative reverse phase HPLC) [fluorescently labeled Tyr14-Cav1 phosphopeptide (residues 5-22 of Cav1, phosphorylated on Tyr14)] ?
1370
